Measured protein stability index of individual entries
- Test system: Saccharomyces cerevisiae
- protocol text: protein stability index of tFT-peptide fusion (C-terminal peptide) (PSI (0-1 scale)); higher = more stable (slower turnover)
- experimental conditions: genetic background: wild type; temperature: 37 C
observation type: protein stability index

1. ALTLSYAIKLKV; 0.401
2. QGRRKEKAVTLN; 0.241
3. RLVMAVRVAAGG; 0.524
4. WGLGWRGALVAV; 0.454
5. WRMRCGLIIGLV; 0.125
6. LGFFPSPVLCVF; 0.175
7. ARFFFFCVGILI; 0.458
8. LSARVFCFWFFS; 0.285
9. PPLPPVCPSPSL; 0.714
10. GVFRYKLILRKM; 0.435
11. LHSDHLRIILRI; 0.576
12. TVETYNRARKAS; 0.412
13. RRLYERNKNNKQ; 0.649
14. TFVGWIVWLCGS; 0.456
15. GWVVWLTGCLVF; 0.621

* * *

Each item that follows carries a reported protein stability index.
- Test system: Saccharomyces cerevisiae
- protocol text: protein stability index of tFT-peptide fusion in wild type (PSI (0-1 scale)); higher = more stable (slower turnover)
- experimental conditions: genetic background: wild type
observation type: protein stability index

1) LKILRYKMNHQN; 0.181
2) GLYMCSDGCWFR; 0.65
3) RVTRLKAIYFRI; 0.155
4) QLIQPLPVQFLN; 0.0736
5) ARWRVILWRGAS; 0.496
6) RLLQPLPVQFLN; 0.037
7) KKHEKGQKQKIN; 0.0983
8) RSLRVLLPLYFY; 0.263
9) GLYMCSVGCDFR; 0.641
10) ARWRVGHWRGAS; 0.582
11) RLIQPLPVKFLN; 0.184
12) RVTRLYAIYFRI; 0.134
13) ARWRVGLWRGASA; 0.665

* * *

- Tested on: Saccharomyces cerevisiae
- protocol text: protein stability index of tFT-peptide fusion (C-terminal peptide) (PSI (0-1 scale)); higher = more stable (slower turnover)
- experimental conditions: genetic background: wild type; temperature: 30 C
Catalogue of protein stability index values
observation type: protein stability index

1) GLATISARYFCL; 0.647
2) GAGEGAQEDPAS; 0.705
3) SNRLIKKKKKRI; 0.715
4) RRCSCGFLCIDS; 0.672
5) WCGNGFVKKGGL; 0.655
6) RAWELPRLRGRD; 0.743
7) TALSRLFECFLS; 0.461
8) AVWRVSGPFTDA; 0.685
9) IDLWGNGRCVEL; 0.701
10) SILFSYFCFFLL; 0.356
11) WGGWGLRVSCGT; 0.681
12) DVFCRPRCFRRG; 0.686
13) GGWGWGERRSRE; 0.658
14) PASSTLRPPAHP; 0.723
15) QYGVSIRRDSRP; 0.642
16) PSTLLPSLRFPP; 0.654
17) VEYSVVDKRLLY; 0.651
18) TMLPQGFSGNLH; 0.689
19) ESYGIVEEGVYS; 0.652
20) SSVGLFVLLCLV; 0.302
21) VQGGSSCLWSVR; 0.72
22) WCRGGGWPVTGL; 0.7
23) PPPAPLRSLSTP; 0.701
24) GVLRPVWVLGGS; 0.624
25) SRDSGLIDPRFS; 0.67
26) LSLSTTLSADLY; 0.678
27) GQGSSRKSTSVK; 0.711
28) APPRPTRSHSAL; 0.657
29) RVVHKIFGRRVT; 0.687
30) WGGGGGVWGHVV; 0.603
31) PGDVSFALARNG; 0.624
32) LVLGVEVCFVLG; 0.273
33) SPPPSPSPPPPL; 0.739
34) TYYPLNRSRFIG; 0.277
35) KGHMYEFRKGVR; 0.68
36) VWFVFVCAVCVL; 0.273
37) VRCGCDFRVSRC; 0.717
38) GSGVVCTMGWRL; 0.686
39) RWGVRGAIHSDL; 0.684
40) LLTTGGRWWRRP; 0.669
41) GDIGAGMGVVGE; 0.641
42) PSSHHGNQTTRK; 0.826
43) VSRGGAVRLSTQ; 0.703
44) PLVPISPLPYLP; 0.737
45) KTEGQEKRVMSE; 0.734
46) FSGRGSSPVAVF; 0.544
47) GPFGVGALVCCM; 0.433
48) PLPLSPLLLPPR; 0.684

* * *

protein stability index values, listed per item
- Tested on: Saccharomyces cerevisiae
- protocol text: protein stability index of tFT-peptide fusion (C-terminal peptide) (PSI (0-1 scale)); higher = more stable (slower turnover)
- experimental conditions: genetic background: wild type; temperature: 37 C
observation type: protein stability index

1) LWERRSRQLTMF; 0.33
2) PETSRFALNEWG; 0.717
3) SFIVGYRWNNRN; 0.578
4) LIAGTRRIPLFI; 0.466
5) IVEVNCILMWIF; 0.469
6) LLPSPLLLYSLS; 0.562
7) FLTSPSVWRYLF; 0.227
8) SPPHSPSALPPP; 0.701

* * *

Parameter protein stability index: see the listing below.
- System: Saccharomyces cerevisiae
- protocol text: protein stability index of tFT-peptide fusion (C-terminal peptide) (PSI (0-1 scale)); higher = more stable (slower turnover)
- experimental conditions: genetic background: wild type; temperature: 30 C
observation type: protein stability index

1) PHPPPPPPPHSP; 0.715
2) RASTRGIMISKS; 0.706
3) YVLITGSTIPDN; 0.694
4) MQNDKCWVCNQR; 0.693
5) TAGPHPLSLPPP; 0.709
6) RGGEGTQRRKLR; 0.717
7) SWMDRGGSYSGI; 0.684

* * *

- System: Saccharomyces cerevisiae
- protocol text: protein stability index of tFT-peptide fusion (C-terminal peptide) (PSI (0-1 scale)); higher = more stable (slower turnover)
- experimental conditions: genetic background: wild type; temperature: 30 C
observation type: protein stability index

1) GGGRAAIVRGGW; 0.682
2) RRCGETTEQTVR; 0.71
3) GAVVLAGWGVLK; 0.718
4) GGFGGAWRGWAP; 0.692

* * *

- Test system: Saccharomyces cerevisiae
- protocol text: protein stability index of tFT-peptide fusion (C-terminal peptide) (PSI (0-1 scale)); higher = more stable (slower turnover)
- experimental conditions: genetic background: wild type; temperature: 30 C
observation type: protein stability index

1. PFPRPALPAYQS; 0.705
2. SDPGRLVLKIRR; 0.715
3. RGPGMVRAFAEA; 0.679
4. FFGCVLRPCLRG; 0.72
5. GAENPRRLRART; 0.691
6. PPPPPHLPPLTP; 0.711
7. AGGGLGVVLGWW; 0.705
8. LRSVISLSSLFS; 0.686
9. TSPPPPIPLPPR; 0.695
10. PAPCPSPPAPAV; 0.708
11. LAPASPTHPHPP; 0.679
12. PRPRTPPPLLSF; 0.687
13. GGGGMASRGGNK; 0.685
14. LSPIPLPPPLTS; 0.699
15. KAPCRVGARKGG; 0.688
16. GDRNNLRCWNAS; 0.712
17. GARWGWGRKGSR; 0.692
18. PPLPLPPRPTPP; 0.716
19. DKPRKVLPNENS; 0.687
20. KKTERRNKKKIR; 0.695

* * *

- System: Saccharomyces cerevisiae
- protocol text: protein stability index of tFT-peptide fusion (C-terminal peptide) (PSI (0-1 scale)); higher = more stable (slower turnover)
- experimental conditions: genetic background: wild type; temperature: 30 C
observation type: protein stability index

1. SSLWGAGGRGID; 0.706
2. MKRQQENNAPGR; 0.616
3. GSSSSLDVFVVF; 0.699
4. KRMPDERAKAGP; 0.694
5. PSSCLPAHLRPP; 0.605
6. RVGAVCWSIGLL; 0.68
7. LVSGASHWPSYT; 0.694
8. SLAYPPPSPPPA; 0.68
9. YSLSDVAVLAST; 0.629
10. SSGRLRFISRIH; 0.454
11. RRRTDDSTPGRA; 0.686
12. KGKKRKKKRNFR; 0.68
13. HTAITSGYSRGL; 0.633
14. LLYANDPTRPVI; 0.652
15. AVRFISRLPPPA; 0.686
16. FPVPPFFLSGHL; 0.651
17. LSLGVYMGVGRG; 0.629
18. VGKIRWIGFGGW; 0.695
19. DVVLFQLGSELV; 0.712
20. FALVSLSFALVE; 0.379
21. YLDRFIFIYNIF; 0.26
22. RLGALNHPLAAP; 0.718
23. PPPPPNPIPPTF; 0.713
24. HHPTTQRLSVIH; 0.742
25. GFESTCSLLCVF; 0.43
26. SCHVRPPVPRPS; 0.663
27. DKSYKTYSVKGQ; 0.671
28. WQGARLSSREGH; 0.694
29. SPVSLLSFRLLL; 0.573
30. PPSPPVRPPLLA; 0.617
31. GTLAAGGGVPMS; 0.734
32. FSVSLACYPSMC; 0.698
33. DSPRGRCVRLLV; 0.398
34. ENQGQKKKKKKR; 0.733
35. PPLPPPIPLRPP; 0.539
36. PFCCALPSPPSP; 0.614
37. WLREDCLLSRGR; 0.7
38. PAPLSIPSTLTT; 0.609
39. KSQKKKKKNKNF; 0.57
40. WGPCCSTLLFFV; 0.423

Sourced from the supplement of paper PMC10724198
